Kindly state Kd for each of the entries shown.
SYSTEM_UNDER_TEST: E174A mutant of cSH3 domain (cSH3_E174A) of Grb2 (Homo sapiens, UniProt P62993, E174A)
Sequence (P62993 156-215 E174A limits assumed): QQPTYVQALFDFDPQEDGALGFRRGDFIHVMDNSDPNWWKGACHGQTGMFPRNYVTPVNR
EXPERIMENTAL_DETAILS: ITC binding of G1 and G2 peptides to cSH3_E174A
Ends that are not written are not given here.

DIPPPRPPKPHP [Peptide G1] :: > 1000 µM

As a next step, examine the sequence that follows.
[ask] Record request: Kd value, item PPPVDRNLKPDR [Peptide G2]
[reply] > 1000 µM

====

SYSTEM_UNDER_TEST: E171A mutant of cSH3 domain (cSH3_E171A) of Grb2 (Homo sapiens, UniProt P62993, E171A)
Sequence (P62993 156-215 E171A limits assumed): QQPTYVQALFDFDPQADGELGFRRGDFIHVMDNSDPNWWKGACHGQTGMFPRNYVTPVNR
EXPERIMENTAL_DETAILS: ITC binding of G1 and G2 peptides to cSH3_E171A
ASSAY_CONDITIONS: SD
Ends that are not written are not given here.
EXPERIMENTAL_ENDPOINT: Kd (µM)
One number for each entry, in µM.

DIPPPRPPKPHP [Peptide G1] :: 444

[ask] Any idea what Kd was measured for PPPVDRNLKPDR [Peptide G2] ?
[reply] 158

====

Could you please report measured Kd for the items listed next?
SYSTEM_UNDER_TEST: D187A mutant of cSH3 domain (cSH3_D187A) of Grb2 (Homo sapiens, UniProt P62993, D187A)
Sequence (P62993 156-215 D187A limits assumed): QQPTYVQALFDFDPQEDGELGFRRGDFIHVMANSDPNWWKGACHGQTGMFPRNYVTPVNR
EXPERIMENTAL_DETAILS: ITC binding of G1 and G2 peptides to cSH3_D187A
ASSAY_CONDITIONS: SD
Ends that are not written are not given here.
Answer by giving the amount and then stating its unit.

PPPVDRNLKPDR [Peptide G2] :: 182 µM

Now let's try a different one.
[ask] Which measured Kd value corresponds to DIPPPRPPKPHP [Peptide G1] ?
[reply] 171 µM
